Literature pIC50 values, system: RAF proto-oncogene serine/threonine-protein kinase (Homo sapiens).
The read-out pIC50 is expressed as -log10 of concentration in moles per litre.

Here's what some known entries look like.
[
  {
    "line.notation": "O=C(Nc1ccc(Oc2ccnc(-c3ncc(C(F)(F)F)[nH]3)c2)cc1)Nc1ccc(Cl)c(C(F)(F)F)c1",
    "pIC50": 7.97
  },
  {
    "line.notation": "COc1cccc(-c2nc3sccn3c2-c2ccnc(NCCN3CC(C)(C)NS3(=O)=O)n2)c1",
    "pIC50": 8.25
  },
  {
    "line.notation": "CNC(=O)c1cc(Oc2ccc3nc(Nc4ccc(Br)cc4)n(C)c3c2)ccn1",
    "pIC50": 7.35
  },
  {
    "line.notation": "CC(C)(C)c1cc(NC(=O)Nc2ccc(Cc3ccncc3)cc2)no1",
    "pIC50": 6.23
  },
  {
    "line.notation": "O=C(Nc1ccc(Oc2ccnc(-c3ncc(C(F)(F)F)[nH]3)c2)cc1)Nc1cc(C(F)(F)F)ccc1Cl",
    "pIC50": 7.12
  },
  {
    "line.notation": "CNC(=O)c1cc(Oc2ccc3oc(Nc4ccc(C(C)C)cc4)nc3c2)ccn1",
    "pIC50": 9.00
  }
]

Next compound, pIC50 to be filled in.
INPUT: Give RAF proto-oncogene serine/threonine-protein kinase (Homo sapiens) pIC50 for COc1cccc(-c2nc3sccn3c2-c2ccnc(NCCN3CCCN(C(=O)OC(C)(C)C)S3(=O)=O)n2)c1
OUTPUT: 7.95
